system: HOP-62; experiment: Antiproliferative activity against human HOP-62 cells assessed as cell growth inhibition at 10 uM incubated for 48 hrs by SRB assay relative to control; type: functional; details: read-out: GI
Test Readout: inhibition of growth at 10 µM

Reported HOP-62 inhibition of growth at 10 µM for item CC(=O)Nc1ccc(-n2c(C)nc3c(cnn3-c3ccccc3)c2=O)cc1 was < 15%

Reported HOP-62 inhibition of growth at 10 µM for item Cc1nc2c(cnn2-c2ccccc2)c(=O)n1-c1ccc(NC(=O)c2ccc([N+](=O)[O-])cc2)cc1 was < 15%

Reported HOP-62 inhibition of growth at 10 µM for item Cc1nc2c(cnn2-c2ccccc2)c(=O)n1-c1ccc(N2C(=O)C=CC2=O)cc1 was < 15%

Reported HOP-62 inhibition of growth at 10 µM for item Cc1nc2c(cnn2-c2ccccc2)c(=O)n1-c1ccc(N2C(=O)c3ccccc3C2=O)cc1 was < 15%

* * *

tested on: MDA-MB-435; assay: Antiproliferative activity against human MDA-MB-435 cells assessed as cell growth inhibition at 10 uM incubated for 48 hrs by SRB assay relative to control; assay type: functional; settings: read-out: GI
Give inhibition of growth at 10 µM for every item shown.

Looking up Cc1nc2c(cnn2-c2ccccc2)c(=O)n1-c1ccc(NC(=O)c2ccccc2)cc1 , I found its inhibition of growth at 10 µM recorded as 27.2%

Looking up CC(=O)Nc1ccc(-n2c(C)nc3c(cnn3-c3ccccc3)c2=O)cc1 , I found its inhibition of growth at 10 µM recorded as 21.1%

Looking up Cc1nc2c(cnn2-c2ccccc2)c(=O)n1-c1ccc(/N=C2\C(=O)Nc3ccccc32)cc1 , I found its inhibition of growth at 10 µM recorded as < 15%

Looking up Cc1nc2c(cnn2-c2ccccc2)c(=O)n1-c1ccc(N2C(=O)C=CC2=O)cc1 , I found its inhibition of growth at 10 µM recorded as < 15%

Looking up Cc1nc2c(cnn2-c2ccccc2)c(=O)n1-c1ccc(N)cc1 , I found its inhibition of growth at 10 µM recorded as 22.9%

Looking up Cc1nc2c(cnn2-c2ccccc2)c(=O)n1-c1ccc(NC(=O)c2ccco2)cc1 , I found its inhibition of growth at 10 µM recorded as < 15%

Looking up Cc1nc2c(cnn2-c2ccccc2)c(=O)n1-c1ccc(N2C(=O)c3ccccc3C2=O)cc1 , I found its inhibition of growth at 10 µM recorded as < 15%

* * *

tested on: NCI-H522; assay: Antiproliferative activity against human NCI-H522 cells assessed as cell growth inhibition at 10 uM incubated for 48 hrs by SRB assay relative to control; type: functional; conditions: read-out: GI
Give inhibition of growth at 10 µM for every item shown.
Numeric only. Scale: %

Looking up Cc1nc2c(cnn2-c2ccccc2)c(=O)n1-c1ccc(NC(=O)c2ccccc2)cc1 , I found its inhibition of growth at 10 µM recorded as 20.7

Looking up Cc1nc2c(cnn2-c2ccccc2)c(=O)n1-c1ccc(NC(=O)c2ccc(F)cc2)cc1 , I found its inhibition of growth at 10 µM recorded as 36.1

Looking up COc1ccc(/C=C/C(=O)c2ccc(-n3c(C)nc4c(cnn4-c4ccccc4)c3=O)cc2)cc1 , I found its inhibition of growth at 10 µM recorded as 42.6

Reference source: ChEMBL document CHEMBL5356993
